# Procedure Summary: The drug is tested on Lactobacillus reuteri strain: DSM20016 for biotransformation under anaerobic condition. The drug concentrations were measured over 6 timepoints collected between 0 and 12 hours of incubation by liquid-chromatography-coupled mass spectrometry (LC–MS)
# Format: ADME
# Parameters: dose 5 uM, timepoint 0, 1.5, 3, 6, 9, 12 hours
# Experimental Parameters: limosilactobacillus reuteri, 5 µM
Outcome Measure: Bacterial Biotransformation

Guide cases for Bacterial Biotransformation, answers given:
# Compound, Recorded Result
measured = [
    ("CCOC(=O)[C@H](CCc1ccccc1)N[C@@H](C)C(=O)N1[C@H](C(=O)O)C[C@@H]2CCC[C@@H]21", "Compound NOT metabolized"),
    ("CO[C@H]1C[C@@H]2CC[C@@H](C)[C@@](O)(O2)C(=O)C(=O)N2CCCC[C@H]2C(=O)O[C@H]([C@H](C)C[C@@H]2CC[C@@H](O)[C@H](OC)C2)CC(=O)[C@H](C)/C=C(\\C)[C@@H](O)[C@@H](OC)C(=O)[C@H](C)C[C@H](C)/C=C/C=C/C=C/1C", "Compound NOT metabolized"),
    ("CC(C)NCC(O)COc1ccc(CC(N)=O)cc1 (centres undefined)", "Compound NOT metabolized"),
    ("CCOC(=O)C1=C(COCCN)NC(C)=C(C(=O)OC)C1c1ccccc1Cl (centres undefined)", "Compound NOT metabolized"),
    ("CO[C@H]1C[C@@H]2CC[C@@H](C)[C@@](O)(O2)C(=O)C(=O)N2CCCC[C@H]2C(=O)O[C@H]([C@H](C)C[C@@H]2CC[C@@H](OCCO)[C@H](OC)C2)CC(=O)[C@H](C)/C=C(\\C)[C@@H](O)[C@@H](OC)C(=O)[C@H](C)C[C@H](C)/C=C/C=C/C=C/1C", "Compound NOT metabolized"),
    ("C[C@@H](NCCCc1cccc(C(F)(F)F)c1)c1cccc2ccccc12", "Compound NOT metabolized"),
    ("COc1ccc([C@@H]2Sc3ccccc3N(CCN(C)C)C(=O)[C@@H]2OC(C)=O)cc1", "Compound NOT metabolized"),
    ("C[C@]12C=CC(=O)C=C1CC[C@@H]1[C@@H]2C(=O)C[C@@]2(C)[C@H]1CC[C@]2(O)C(=O)CO", "Compound NOT metabolized"),
    ("CN(Cc1cnc2nc(N)nc(N)c2n1)c1ccc(C(=O)N[C@@H](CCC(=O)O)C(=O)O)cc1 [METHOTREXATE]", "Compound NOT metabolized"),
    ("Cn1cnc([N+](=O)[O-])c1Sc1ncnc2nc[nH]c12", "Compound NOT metabolized"),
]

Problem: Fill in Bacterial Biotransformation for record NS(=O)(=O)c1cc(C(=O)O)c(NCc2ccco2)cc1Cl [FUROSEMIDE]
Result: Compound NOT metabolized

Problem: Complete the entry with Bacterial Biotransformation for C[C@]12CCC(=O)C=C1CC[C@@H]1[C@@H]2C(=O)C[C@@]2(C)[C@H]1CC[C@]2(O)C(=O)CO
Result: Compound NOT metabolized

Problem: Please report Bacterial Biotransformation for the following compound: CCC(C)(C)C(=O)O[C@H]1C[C@@H](C)C=C2C=C[C@H](C)[C@H](CC[C@@H]3C[C@@H](O)CC(=O)O3)[C@H]21
Result: Compound NOT metabolized

Problem: Report measured Bacterial Biotransformation; entry is C[C@]12C=CC(=O)C=C1CC[C@@H]1[C@@H]2[C@@H](O)C[C@@]2(C)[C@H]1CC[C@]2(O)C(=O)CO
Result: Compound NOT metabolized

* * *

# Procedure Summary: The drug is tested on Bifidobacterium longum strain: DSM20088 for biotransformation under anaerobic condition. The drug concentrations were measured over 6 timepoints collected between 0 and 12 hours of incubation by liquid-chromatography-coupled mass spectrometry (LC–MS)
# Format: ADME
# Design: dose 5 uM, timepoint 0, 1.5, 3, 6, 9, 12 hours
# Experimental Parameters: 5 µM
Outcome Measure: Bacterial Biotransformation

A selection of reference data follows.
# Compound, Recorded Result
rows = [
    ("COc1c(C)c2c(c(O)c1C/C=C(\\C)CCC(=O)OCCN1CCOCC1)C(=O)OC2 [MYCOPHENOLATE MOFETIL]", "Compound metabolized"),
    ("CCOc1nc2cccc(C(=O)O)c2n1Cc1ccc(-c2ccccc2-c2nnn[nH]2)cc1", "Compound NOT metabolized"),
    ("CCCC1O[C@@H]2C[C@H]3[C@@H]4CCC5=CC(=O)C=C[C@]5(C)[C@H]4[C@@H](O)C[C@]3(C)[C@]2(C(=O)CO)O1 (some centres undefined) [BUDESONIDE]", "Compound NOT metabolized"),
    ("C[C@@H]1C[C@H]2[C@@H]3CCC4=CC(=O)C=C[C@]4(C)[C@@]3(F)[C@@H](O)C[C@]2(C)[C@@]1(O)C(=O)CO", "Compound NOT metabolized"),
    ("CCOC(=O)[C@H](CCc1ccccc1)N[C@@H](C)C(=O)N1[C@H](C(=O)O)C[C@@H]2CCC[C@@H]21", "Compound NOT metabolized"),
    ("C=CC[C@@H]1/C=C(\\C)C[C@H](C)C[C@H](OC)[C@H]2O[C@@](O)(C(=O)C(=O)N3CCCC[C@H]3C(=O)O[C@H](/C(C)=C/[C@@H]3CC[C@@H](O)[C@H](OC)C3)[C@H](C)[C@@H](O)CC1=O)[C@H](C)C[C@@H]2OC.O", "Compound NOT metabolized"),
    ("CO[C@H]1C[C@@H]2CC[C@@H](C)[C@@](O)(O2)C(=O)C(=O)N2CCCC[C@H]2C(=O)O[C@H]([C@H](C)C[C@@H]2CC[C@@H](O)[C@H](OC)C2)CC(=O)[C@H](C)/C=C(\\C)[C@@H](O)[C@@H](OC)C(=O)[C@H](C)C[C@H](C)/C=C/C=C/C=C/1C", "Compound metabolized"),
    ("C[C@]12CCC(=O)C=C1CC[C@@H]1[C@@H]2[C@@H](O)C[C@@]2(C)[C@H]1CC[C@]2(O)C(=O)CO [HYDROCORTISONE]", "Compound NOT metabolized"),
]

Problem: Using known records, supply Bacterial Biotransformation for Cn1cnc([N+](=O)[O-])c1Sc1ncnc2nc[nH]c12
Result: Compound metabolized

* * *

# Procedure Summary: The drug is tested on the gut metagenome community of A-10 with ENA study accession number: PRJEB31790 for biotransformation under microaerobic condition. The drug concentrations were measured over 7 timepoints collected between 0 and 12 hours of incubation by liquid-chromatography-coupled mass spectrometry (LC–MS)
# Assay type: ADME
# Parameters: dose 5 uM, timepoint 0, 0.75, 1.5, 3, 6, 9, 12 hours
# Experimental Parameters: 5 µM
Outcome Measure: Bacterial Biotransformation

The examples below pair each entry with its known result.
# Compound, Bacterial Biotransformation
measured = [
    ("C[C@@H](NCCCc1cccc(C(F)(F)F)c1)c1cccc2ccccc12", "Compound NOT metabolized"),
    ("CO[C@H]1C[C@@H]2CC[C@@H](C)[C@@](O)(O2)C(=O)C(=O)N2CCCC[C@H]2C(=O)O[C@H]([C@H](C)C[C@@H]2CC[C@@H](OCCO)[C@H](OC)C2)CC(=O)[C@H](C)/C=C(\\C)[C@@H](O)[C@@H](OC)C(=O)[C@H](C)C[C@H](C)/C=C/C=C/C=C/1C", "Compound NOT metabolized"),
    ("C[C@]12CCC(=O)C=C1CC[C@@H]1[C@@H]2C(=O)C[C@@]2(C)[C@H]1CC[C@]2(O)C(=O)CO", "Compound metabolized"),
    ("NS(=O)(=O)c1cc(C(=O)O)c(NCc2ccco2)cc1Cl [FUROSEMIDE]", "Compound NOT metabolized"),
    ("CCOC(=O)C1=C(COCCN)NC(C)=C(C(=O)OC)C1c1ccccc1Cl (configuration not stated)", "Compound NOT metabolized"),
    ("CCOc1nc2cccc(C(=O)O)c2n1Cc1ccc(-c2ccccc2-c2nnn[nH]2)cc1", "Compound NOT metabolized"),
]

Note: attention shifts to another entry.
Problem: // fetch Bacterial Biotransformation given entry C[C@H]1C[C@@H]2[C@H]([C@@H](O)C[C@@]3(C)[C@H]2CC[C@]3(O)C(=O)CO)[C@@]2(C)C=CC(=O)C=C12
Result: Compound metabolized

* * *

# Procedure Summary: The drug is tested on the gut metagenome community of A-03 with ENA study accession number: PRJEB31790 for biotransformation under anaerobic condition. The drug concentrations were measured over 7 timepoints collected between 0 and 12 hours of incubation by liquid-chromatography-coupled mass spectrometry (LC–MS)
# Type: ADME
# Set-up: dose 5 uM, timepoint 0, 0.75, 1.5, 3, 6, 9, 12 hours
# Experimental Parameters: 5 µM
Outcome Measure: Bacterial Biotransformation

# Compound, Recorded Result
data = [
    ("C=CC[C@@H]1/C=C(\\C)C[C@H](C)C[C@H](OC)[C@H]2O[C@@](O)(C(=O)C(=O)N3CCCC[C@H]3C(=O)O[C@H](/C(C)=C/[C@@H]3CC[C@@H](O)[C@H](OC)C3)[C@H](C)[C@@H](O)CC1=O)[C@H](C)C[C@@H]2OC.O [TACROLIMUS]", "Compound NOT metabolized"),
    ("C[C@]12C=CC(=O)C=C1CC[C@@H]1[C@@H]2C(=O)C[C@@]2(C)[C@H]1CC[C@]2(O)C(=O)CO [PREDNISONE]", "Compound metabolized"),
    ("C[C@]12C=CC(=O)C=C1CC[C@@H]1[C@@H]2[C@@H](O)C[C@@]2(C)[C@H]1CC[C@]2(O)C(=O)CO [PREDNISOLONE]", "Compound metabolized"),
    ("COc1c(C)c2c(c(O)c1C/C=C(\\C)CCC(=O)O)C(=O)OC2 [MYCOPHENOLIC ACID]", "Compound NOT metabolized"),
]

Next:
Problem: Give recorded Bacterial Biotransformation. CO[C@H]1C[C@@H]2CC[C@@H](C)[C@@](O)(O2)C(=O)C(=O)N2CCCC[C@H]2C(=O)O[C@H]([C@H](C)C[C@@H]2CC[C@@H](OCCO)[C@H](OC)C2)CC(=O)[C@H](C)/C=C(\C)[C@@H](O)[C@@H](OC)C(=O)[C@H](C)C[C@H](C)/C=C/C=C/C=C/1C [EVEROLIMUS]
Result: Compound metabolized
